biological target: Cholinesterase (Homo sapiens, UniProt P06276); assay: Inhibition of BChE (unknown origin)
Can you tell me IC50 for the items I'm about to list?
Answers are plain numbers, in nM.

Previously resolved entries follow.
{"Compound": "COc1ccc2[nH]cc(CCC(=O)CCCCCCNC(=O)Oc3ccc4c(c3)CN3CCc5ccccc5C3N4C)c2c1 (stereo unspecified)", "IC50 / nM": 102}
{"Compound": "CC(C)c1ccc(NC(=O)Oc2ccc3c(c2)[C@]2(C)CCO[C@@H]2O3)cc1", "IC50 / nM": 27}
{"Compound": "CCCCCCCNC(=O)Oc1ccc2c(c1)CN1CCc3ccc(/N=N\\c4ccccc4)cc3C1N2C (stereo unspecified)", "IC50 / nM": 44.5}
{"Compound": "COc1cc(/C=C/C(=O)NCCCCNC(=O)Oc2ccc3c(c2)CN2CCc4ccccc4C2N3C)ccc1O (stereo unspecified)", "IC50 / nM": 102}

Here is the next item to consider.
Query IC50 on Cholinesterase (Homo sapiens, UniProt P06276) for `CCNC(=O)Oc1ccc2c(c1)[C@]1(C)CCO[C@@H]1O2`
6

---

target: Butyrylcholinesterase (Rattus norvegicus); assay: Inhibition of rat serum BChE using butyrylthiocholine iodide as substrate incubated for 15 mins by Ellman's method
Sequence (Q9JKC1 whole entry): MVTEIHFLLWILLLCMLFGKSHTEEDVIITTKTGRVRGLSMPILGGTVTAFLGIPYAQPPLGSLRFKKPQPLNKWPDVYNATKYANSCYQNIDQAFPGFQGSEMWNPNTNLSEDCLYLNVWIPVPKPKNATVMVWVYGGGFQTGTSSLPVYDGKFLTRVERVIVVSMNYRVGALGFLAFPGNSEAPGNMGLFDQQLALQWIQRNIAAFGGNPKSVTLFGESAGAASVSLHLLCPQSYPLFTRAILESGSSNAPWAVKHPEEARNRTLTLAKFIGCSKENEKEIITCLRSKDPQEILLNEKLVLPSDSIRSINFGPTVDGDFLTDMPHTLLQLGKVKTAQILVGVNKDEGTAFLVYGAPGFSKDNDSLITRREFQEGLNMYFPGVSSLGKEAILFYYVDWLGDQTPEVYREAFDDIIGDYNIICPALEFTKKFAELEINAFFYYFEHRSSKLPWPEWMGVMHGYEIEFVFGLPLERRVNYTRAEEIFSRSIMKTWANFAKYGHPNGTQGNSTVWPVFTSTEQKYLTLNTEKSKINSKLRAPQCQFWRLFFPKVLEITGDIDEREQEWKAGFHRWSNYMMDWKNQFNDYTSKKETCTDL
Endpoint Label: pIC50
Give bare numbers, as −log10 of the molar value.

Could you tell me which pIC50 is on file for `CCNC(=O)Oc1ccc(-c2cc(=O)c3c(O)c(O)c(O)cc3o2)cc1` ?
4.66

---

molecular target: Acetylcholinesterase (Homo sapiens, UniProt P22303); assay: Inhibition of human AChE
Can you tell me pIC50 for the items I'm about to list?
Numbers only, as −log10 of the molar value.

Previously resolved entries follow.
{"Compound": "CCN1/C(=C/C(C)=O)Sc2ccc(OC(=O)OCCOCCNC(=O)c3cc4c(OC(=O)N(C)C)cccc4[n+](C)c3)cc21", "pIC50": 7.09}
{"Compound": "CNC(=O)Oc1cccc2c1CCC1C2CCN1CCC1CCCCC1 (stereo unspecified)", "pIC50": 7.24}
{"Compound": "O=C(Oc1cc(O)c2c(=O)cc(-c3ccc(O)cc3)oc2c1)N1CCCCC1", "pIC50": 4.20}
{"Compound": "CCC(C)(C)NCC(O)c1cc(O)cc(OC(=O)N(C)C)c1 (stereo unspecified)", "pIC50": 4.70}

Here is the next item to consider.
Could you tell me which pIC50 is on file for `COC(=O)c1cc2c(OC(=O)N(C)C)cccc2[n+]([11CH3])c1` ?
7.70

---

Can you tell me Ratio IC50 for the items I'm about to list?
assay: Selectivity index, ratio of IC50 for electric eel AChE to IC50 for equine BChE
Answers are plain numbers.

Previously resolved entries follow.
{"Chemical Structure": "CN(C)C(=O)Oc1cccc(-c2coc3c4c(ccc3c2=O)OC(C)(C)C=C4)c1", "Ratio IC50": 49.3}
{"Chemical Structure": "CC(C)C[C@@H](CS(=O)(=O)NCc1ccc(Cl)cc1)NC(=O)OCc1ccccc1", "Ratio IC50": 10.3}

Here is the next item to consider.
Could you tell me which Ratio IC50 is on file for `CCCCCCCNC(=O)Oc1ccc(F)c(-c2coc3c4c(ccc3c2=O)OC(C)(C)C=C4)c1` ?
836

---

biological target: Acetylcholinesterase (Homo sapiens, UniProt P22303); assay: Inhibition of human erythrocyte AChE using acetylthiocholine iodide as substrate preincubated for 6 mins followed by substrate addition measured upto 180 secs by Ellman's method
Endpoint Label: IC50 (µM)
Numbers only, in µM.

{"Compound": "Cc1c(Cl)c(=O)oc2cc(OCCCCSC(=S)N3C(C)CCCC3C)ccc12 (configuration not stated)", "IC50, µM": 0.114}

Here is the next item to consider.
Could you tell me which IC50 is on file for Cc1c(Cl)c(=O)oc2cc(OCCCCSC(=S)N3CCCCC3C)ccc12 (configuration not stated) ?
0.0068

---

molecular target: UniProtKB P06276; test: Inhibition of recombinant human serum BChE using butyrylthiocholine iodide as substrate preincubated for 20 mins followed by substrate addition measured after 5 mins by Ellman's method
Can you tell me IC50 for the items I'm about to list?
Give bare numbers, in nM.

{"Chemical Structure": "CNC(=O)Oc1cccc(CN(C)CCCCCCOc2ccc3c(c2)O/C(=C\\c2cc(OC)c(OC)c(OC)c2)C3=O)c1", "IC50 / nM": 136}

Here is the next item to consider.
Could you tell me which IC50 is on file for `CNC(=O)Oc1cccc(CN(C)CCCCCCOc2ccc(C(=O)/C=C/c3cc(OC)c(OC)c(OC)c3)c(O)c2)c1` ?
30.2

---

molecular target: Cholinesterases; ACHE & BCHE (Homo sapiens) (UniProt P06276+P22303); test: Selectivity index, ratio of IC50 for AChE (unknown origin) to BChE (unknown origin); assay type: protein assay
Sequence (P06276 whole entry, looked up): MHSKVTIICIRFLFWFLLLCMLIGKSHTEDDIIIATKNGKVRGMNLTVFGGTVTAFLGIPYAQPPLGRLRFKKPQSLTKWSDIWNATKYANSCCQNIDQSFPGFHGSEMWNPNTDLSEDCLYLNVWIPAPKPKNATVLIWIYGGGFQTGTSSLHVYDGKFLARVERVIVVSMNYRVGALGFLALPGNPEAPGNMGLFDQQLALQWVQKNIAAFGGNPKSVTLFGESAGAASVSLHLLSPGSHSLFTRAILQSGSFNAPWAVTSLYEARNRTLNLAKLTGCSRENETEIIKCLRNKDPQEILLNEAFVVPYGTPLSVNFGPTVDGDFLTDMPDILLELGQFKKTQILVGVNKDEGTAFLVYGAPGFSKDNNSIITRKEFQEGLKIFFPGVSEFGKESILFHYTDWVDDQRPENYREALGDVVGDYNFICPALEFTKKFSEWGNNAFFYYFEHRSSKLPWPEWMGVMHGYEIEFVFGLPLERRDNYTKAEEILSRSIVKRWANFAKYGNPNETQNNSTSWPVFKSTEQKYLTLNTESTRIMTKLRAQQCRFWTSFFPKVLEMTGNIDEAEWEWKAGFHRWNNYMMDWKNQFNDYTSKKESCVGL
Sequence (P22303 whole entry, looked up): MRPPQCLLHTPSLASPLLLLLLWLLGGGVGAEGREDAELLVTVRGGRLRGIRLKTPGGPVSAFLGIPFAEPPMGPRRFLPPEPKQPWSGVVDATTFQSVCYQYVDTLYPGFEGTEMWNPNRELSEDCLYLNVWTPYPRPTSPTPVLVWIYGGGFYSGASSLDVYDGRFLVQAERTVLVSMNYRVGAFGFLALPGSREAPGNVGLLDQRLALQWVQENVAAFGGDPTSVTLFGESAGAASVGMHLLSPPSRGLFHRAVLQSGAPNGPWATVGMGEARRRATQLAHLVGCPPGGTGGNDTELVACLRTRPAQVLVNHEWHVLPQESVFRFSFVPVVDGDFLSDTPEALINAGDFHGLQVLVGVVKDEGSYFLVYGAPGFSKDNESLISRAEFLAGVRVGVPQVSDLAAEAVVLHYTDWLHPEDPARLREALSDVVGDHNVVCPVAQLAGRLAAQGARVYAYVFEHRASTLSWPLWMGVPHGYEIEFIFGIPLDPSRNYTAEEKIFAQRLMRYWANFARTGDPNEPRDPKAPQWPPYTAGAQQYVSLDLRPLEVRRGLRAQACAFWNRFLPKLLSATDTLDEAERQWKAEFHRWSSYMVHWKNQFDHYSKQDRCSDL
# binarize Ratio IC50: threshold 100 inclusive, high side 1 (yes), low side 0 (no)

See these solved cases before continuing.
{"Compound": "CN1c2ccc(OC(=O)NCC3CCCCC3)cc2[C@]2(C)CCN(CCc3ccccc3)[C@H]12", "Category Label": "1 (yes)"}
{"Compound": "CN1CC[C@@]2(C)c3cc(OC(=O)Nc4ccccc4)ccc3N(C)[C@@H]12", "Category Label": "0 (no)"}
{"Compound": "CC(C)c1ccc(NC(=O)Oc2ccc3c(c2)C2(C)COC(C2)O3)cc1 (configuration not stated)", "Category Label": "1 (yes)"}
{"Compound": "CCc1ccccc1NC(=O)Oc1ccc2c(c1)[C@]1(C)CC[N+](C)([O-])[C@@H]1N2C (some centres not stated)", "Category Label": "1 (yes)"}
{"Compound": "CC(C)c1ccc(NC(=O)Oc2ccc3c(c2)[C@]2(C)CCN(CCc4ccccc4)[C@@H]2N3C)cc1", "Category Label": "1 (yes)"}
{"Compound": "CC(C)c1ccc(NC(=O)Oc2ccc3c(c2)[C@]2(C)CCN[C@@H]2N3)cc1", "Category Label": "1 (yes)"}

Entry `CCNC(=O)Oc1ccc2c(c1)[C@]1(C)CCO[C@@H]1O2` : is its Ratio IC50 no less than 100?
0 (no)

---

molecular target: Cholinesterase (Homo sapiens, UniProt P06276); assay: Inhibition of recombinant human serum BChE using acetylthiocholine iodide as substrate preincubated for 20 mins followed by substrate addition by Ellman's method
Endpoint Label: IC50
A bare number is not enough; add the unit after it.

{"Chemical Structure": "CNC(=O)Oc1cccc(CN(C)CCCCCCCOc2ccc(-c3cc4ccccc4oc3=O)cc2)c1", "IC50": "59.4 nM"}

Here is the next item to consider.
Could you tell me which IC50 is on file for `CNC(=O)Oc1cccc(CN(C)CCCCCCCOc2ccc(-c3cc(=O)c4ccccc4o3)cc2)c1` ?
70.2 nM

---

target: Acetylcholinesterase (Homo sapiens, UniProt P22303); test: Inhibition of human whole red blood cells AChE using acetylthiocholine iodide as substrate incubated for 25 mins by Ellman's method
Endpoint Label: IC50 (nM)
One number for each entry, in nM.

Could you tell me which IC50 is on file for `CC(=O)N1CC[C@@]2(O)c3cc(OC(=O)Nc4ccccc4)ccc3N[C@@H]12` ?
250

---

Can you tell me pIC50 for the items I'm about to list?
biological target: UniProt P22303; assay: Inhibition of recombinant human AChE
Numbers only, as −log10 of the molar value.

{"Compound": "C#CCNC1CCc2c(OC(=O)N(C)C)cccc21 (stereo unspecified)", "pIC50": 4.07}

Please state, for each entry, its recorded pIC50.
1. C#CCN(C)C1CCc2c(OC(=O)N(C)CC)cccc21 (stereo unspecified)
2. C#CCN(C)C1CCc2cccc(OC(=O)N(C)C)c21 (stereo unspecified)
3. C#CCN[C@@H]1CCc2ccc(OC(=O)N(C)CC)cc21

5.40
3.14
3.00

Please state, for each entry, its recorded pIC50.
1. C#CCNC1CCc2c(OC(=O)N(C)CC)cccc21 (stereo unspecified)
2. O=C1CCOc2cc(OCCCCCSC(=S)N3CCCCC3)ccc21

1: 3.82; 2: 7.00

---

biological target: UniProtKB Q9JKC1; assay: Inhibition of rat BChE
Endpoint Label: IC50 (nM)
Numbers only, in nM.

Could you tell me which IC50 is on file for CN(C)C(=O)Oc1cc(OC(=O)N(C)C)cc(C(O)CNC(C)(C)C)c1 (stereo unspecified) ?
3

---

molecular target: Acetylcholinesterase (Homo sapiens); test: Binding affinity to AChE (unknown origin) assessed as inhibition constant
Endpoint Label: Ki (nM)
One number for each entry, in nM.

Could you tell me which Ki is on file for `CCCCCCCNC(=O)Oc1ccc2c(c1)[C@]1(C)CCN(C)[C@@H]1N2C` ?
100

---

molecular target: Acetylcholinesterase (Homo sapiens); assay: Inhibition of recombinant human AChE using acetylthiocholine as substrate preincubated for 20 mins followed by substrate addition measured after 6 mins by Ellman's method
Endpoint Label: pIC50
Numbers only, as −log10 of the molar value.

Could you tell me which pIC50 is on file for `CC[C@@]1(c2cccc(OC(=O)Nc3ccccc3)c2)CCCCN(C)C1` ?
6.56
